# ΔTm at 10 µM annotations
Target: ZmDRIK1-K217-P492 (Zea mays, UniProt C0P4K9)
Construct: kinase domain, K217-P492
Sequence (C0P4K9 1-514): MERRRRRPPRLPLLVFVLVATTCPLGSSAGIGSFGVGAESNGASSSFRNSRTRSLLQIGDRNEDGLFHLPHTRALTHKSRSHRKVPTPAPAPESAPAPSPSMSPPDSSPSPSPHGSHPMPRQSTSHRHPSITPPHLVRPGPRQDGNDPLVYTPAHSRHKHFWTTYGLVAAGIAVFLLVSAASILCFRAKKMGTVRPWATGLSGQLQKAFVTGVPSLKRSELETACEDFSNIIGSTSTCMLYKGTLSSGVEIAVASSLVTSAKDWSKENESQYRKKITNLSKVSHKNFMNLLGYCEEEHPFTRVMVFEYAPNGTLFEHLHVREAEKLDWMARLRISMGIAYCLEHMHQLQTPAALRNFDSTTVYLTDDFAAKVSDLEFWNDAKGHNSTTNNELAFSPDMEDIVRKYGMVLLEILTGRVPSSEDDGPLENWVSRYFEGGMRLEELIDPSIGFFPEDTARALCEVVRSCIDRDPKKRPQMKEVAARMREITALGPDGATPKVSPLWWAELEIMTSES
Assay: biochemical
Settings: read-out: dTm B, sheet ZmDRIK1-K217-P492;; DSF, Boltzmann fit, 0.1% DMSO
Reply numerically in °C, unit not repeated.

Recorded results for 6 molecules are shown here.
{"molecule": "CO[C@@H](C(=O)N1Cc2[nH]nc(NC(=O)c3ccc(N4CCN(C)CC4)cc3)c2C1)c1ccccc1", "quantity.kind": "ΔTm at 10 µM", "experimental.result": -0.905}
{"molecule": "Cc1nc(N)sc1-c1ccnc(Nc2ccc(N3CCOCC3)cc2)n1", "quantity.kind": "ΔTm at 10 µM", "experimental.result": -0.775}
{"molecule": "N#CC(C#N)=Cc1ccc(O)c(O)c1", "quantity.kind": "ΔTm at 10 µM", "experimental.result": -0.987}
{"molecule": "O=C1NC(=O)/C(=C/c2ccc3nccc(-c4ccncc4)c3c2)S1", "quantity.kind": "ΔTm at 10 µM", "experimental.result": -0.796}
{"molecule": "CNC(=O)c1cc(Oc2ccc(NC(=O)Nc3ccc(Cl)c(C(F)(F)F)c3)c(F)c2)ccn1", "quantity.kind": "ΔTm at 10 µM", "experimental.result": -8.99}
{"molecule": "CCN(CCO)CCCOc1ccc2c(Nc3cc(CC(=O)Nc4cccc(F)c4)[nH]n3)ncnc2c1", "quantity.kind": "ΔTm at 10 µM", "experimental.result": -0.927}

## Input # lookup: ΔTm at 10 µM of Cc1[nH]c2ccccc2c1C1=C(NCCc2ccc(F)cc2)C(=O)N(C)C1=O
## Output -1.43

## Input And for N#C/C(=C\c1ccc(O)c(O)c1)C(=O)NCc1ccccc1 ?
## Output -0.722

## Input And for CCC[C@H](NC(=O)/C(C#N)=C/c1cccc(Br)n1)c1ccccc1 [Degrasyn (WP1130)] ?
## Output -5.21

## Input And for CN1CCN(C2CCN(C(=O)Nc3cc(Oc4ccc(NC(=O)C5(C(=O)Nc6ccc(F)cc6)CC5)c(F)c4)ccn3)CC2)CC1 [Golvatinib (E7050)] ?
## Output -0.473

## Input And for CC(C)(C)Cn1c(N)nc2ccc(-c3[nH]c(C(C)(C)C)nc3-c3ccc(F)cc3)nc21 ?
## Output -0.453

## Input And for COc1ccc2c(Oc3ccc(NC(=O)c4c(C)n(CC(C)(C)O)n(-c5ccccc5)c4=O)nc3)ccnc2c1 ?
## Output -0.94

## Input And for Oc1ccc(-c2nc(-c3ccc(F)cc3)c(-c3ccncc3)[nH]2)cc1 ?
## Output 1.22

## Input And for O=C1NC(=O)C(=Cc2ccc(-c3ccc(F)cc3)o2)S1 (stereo in doubt) ?
## Output -0.834

## Input And for COc1cc2c(N3CCN(C(=O)Nc4ccc(OC(C)C)cc4)CC3)ncnc2cc1OCCCN1CCCCC1 ?
## Output -0.971

## Input And for CNC(=O)c1ccccc1Nc1nc(Nc2ccc(N3CCOCC3)cc2OC)ncc1Cl ?
## Output -0.725
